procedure_summary: Plasma stability, rat plasma
Type: in vitro ADME
measurement_context: rat plasma, 37° C., 15 min
Answer each item with its documented Residual rate (%) 15 min.
Write the number in % without appending the unit.

The compound C=CC(=O)N1CCN(c2nc(=O)n(-c3c(C)ccnc3C(C)C)c3nc(-c4c(O)cccc4F)c(F)cc23)[C@@H](C)C1 [AMG 510, reference compound] showed Residual rate (%) 15 min equal to 100.85

Input C=CC(=O)N1C[C@H](C)N(c2nc(=O)n(-c3c(SC)ccnc3C(C)C)c3nc(-c4c(N)ccc(Cl)c4F)c(Cl)cc23)C[C@H]1C (single isomer, unassigned) . Output Residual rate (%) 15 min: 95.57

Memo: CC[C@H](C)C(=O)O[C@H]1C[C@@H](C)C=C2C=C[C@H](C)[C@H](CC[C@@H]3C[C@@H](O)CC(=O)O3)[C@H]21 [Lovastatin, reference compound] , reported Residual rate (%) 15 min: 21.15

What the record says about C=CC(=O)N1C[C@H](C)N(c2nc(=O)n(-c3c(SC)ccnc3C(C)C)c3nc(-c4c(O)cccc4F)c(Cl)cc23)C[C@H]1C (single isomer, unassigned) : Residual rate (%) 15 min is 93.20

* * *

So I've got a bunch of molecules here, and I need their Tmax values.
procedure_summary: in vivo
measurement_context: male, Balb/c, mouse, po, 10 mg/kg
Report as a plain number; the unit min is understood.

Briefly, Tmax measured for C=CC(=O)N1C[C@H](C)N(c2nc(=O)n(-c3c(SC)ccnc3C(C)C)c3nc(-c4c(O)cccc4F)c(F)cc23)C[C@H]1C [Embodiment 114] : 15

Measured Tmax, C=CC(=O)N1C[C@H](C)N(c2nc(=O)n(-c3c(SC)ccnc3C(C)C)c3nc(-c4c(O)cccc4F)c(F)cc23)C[C@H]1C (single isomer, unassigned) [Embodiment 114-1] : 15

Given item C=CC(=O)N1C[C@H](C)N(c2nc(=O)n(-c3c(SC)ccnc3C(C)C)c3nc(-c4c(N)ccc(Cl)c4F)c(Cl)cc23)C[C@H]1C (single isomer, unassigned) [Embodiment 165-1] , the value recorded as its Tmax is 15

* * *

procedure_summary: Plasma protein binding rate, human plasma
Type: in vitro ADME
measurement_context: 37° C.
readout_kind: fraction unbound at 6 h, 5 μM
Provide a numeric answer; units are not to be included.

# fraction unbound at 6 h, 5 μM (molecule: C=CC(=O)N1C[C@H](C)N(c2nc(=O)n(-c3c(SC)ccnc3C(C)C)c3nc(-c4c(N)ccc(Cl)c4F)c(Cl)cc23)C[C@H]1C (single isomer, unassigned) ) is 0.003

fraction unbound at 6 h, 5 μM in this record for C=CC(=O)N1C[C@H](C)N(c2nc(=O)n(-c3c(SC)ccnc3C(C)C)c3nc(-c4c(O)cccc4F)c(Cl)cc23)C[C@H]1C (single isomer, unassigned) : 0.032

Please fill in: fraction unbound at 6 h, 5 μM reported for C=CC(=O)N1C[C@H](C)N(c2nc(=O)n(-c3c(SC)ccnc3C(C)C)c3nc(-c4c(O)cccc4F)c(F)cc23)C[C@H]1C (single isomer, unassigned) = 0.02

* * *

I'd be grateful if you could share measured fraction unbound at 6 h, 5 μM for these entries.
procedure_summary: Plasma protein binding rate, rat plasma
Format: in vitro ADME
measurement_context: 37° C.
Give the value as a plain number.

Given item C=CC(=O)N1C[C@H](C)N(c2nc(=O)n(-c3c(SC)ccnc3C(C)C)c3nc(-c4c(N)ccc(Cl)c4F)c(Cl)cc23)C[C@H]1C (single isomer, unassigned) , the value recorded as its fraction unbound at 6 h, 5 μM is 0.021

compound C=CC(=O)N1C[C@H](C)N(c2nc(=O)n(-c3c(SC)ccnc3C(C)C)c3nc(-c4c(O)cccc4F)c(Cl)cc23)C[C@H]1C (single isomer, unassigned) , fraction unbound at 6 h, 5 μM observed: 0.046

Short answer for C=CC(=O)N1C[C@H](C)N(c2nc(=O)n(-c3c(SC)ccnc3C(C)C)c3nc(-c4c(O)cccc4F)c(F)cc23)C[C@H]1C (single isomer, unassigned) : fraction unbound at 6 h, 5 μM was 0.095
